# System: TK-10
# assay overview: NCI tumour cell line growth inhibition, 48 h
Calls of active or inactive are those of the source. No stated cut-off is given here; in the data, active = GI50 up to about 1.1 µM and inactive = higher.
measure name: GI50

Study these solved cases before continuing.
>  <molecule>
COc1ccccc1/C=N/C12CC3CC(CC(C3)C1)C2

>  <measured target>
TK-10

>  <GI50>
> 100 µM (inactive)

$$$$
>  <molecule>
CN(C)CC1CN/C(=N\C(=O)Nc2ccccc2)O1 (stereo not given)

>  <measured target>
TK-10

>  <GI50>
> 100 µM (inactive)

$$$$

The molecule listed as CC1=C/C(=C2/N=C(N(C)C)SS2)C(C)=N1.[O-][Cl+3]([O-])([O-])O shows GI50 equal to > 100 µM (inactive)

Reported GI50 ( O=C(Cc1csc(N/N=C2\C(=O)Nc3ccccc32)n1)Nc1ccccc1 ) = 44.1 µM (inactive)

The recorded GI50 for entry CCOC(=O)c1cccc(/N=N/Nc2cccc(C(=O)OCC)c2)c1 equals 27.5 µM (inactive)

----------
# System: HT-29
# assay overview: NCI tumour cell line growth inhibition, 48 h
Activity calls are given as the source filed them. Cut-off read from the data, not from the text of the source: active = GI50 up to about 1.1 µM and inactive = higher.
Give your call using only these classes: label 1 for active, label 0 for inactive

The examples below pair each entry with its known result.
>  <molecule>
N#Cc1ccc(/C=N/NC(=O)CSCC(=O)N/N=C/c2ccc(C#N)cc2)cc1

>  <category>
label 0

$$$$
>  <molecule>
COc1cc2c(/C=C3/C(=O)Nc4ccc(Cl)cc43)c(Cl)[nH]c2cc1C

>  <category>
label 1

$$$$
>  <molecule>
O=C(N/N=C\C(F)(F)F)c1ccncc1

>  <category>
label 0

$$$$
>  <molecule>
CC1CCc2c(sc3ncnc(N/N=C/c4ccc(Cl)c(Cl)c4)c23)C1 (stereo not given)

>  <category>
label 0

$$$$
>  <molecule>
C#CCNC(Cc1c[nH]cn1)C(=O)O (stereo not given)

>  <category>
label 0

$$$$
>  <molecule>
[N-]=[N+]=Nc1c(Cc2ccccc2)c(Cl)nc2ccccc12

>  <category>
label 0

$$$$
>  <molecule>
C/C(=N/NC(=S)Nc1ccccc1Cl)c1cccc(/C(C)=N\NC(=S)Nc2ccccc2Cl)n1

>  <category>
label 0

$$$$
>  <molecule>
CC1=C(C(=O)CC(=O)C(=O)Nc2ccccc2C(F)(F)F)Sc2ccccc2N1

>  <category>
label 0

$$$$

Prompt: What did the test return for Cn1c(=N)n[n+]([O-])c2ccccc21 ?
Completion: label 0

Prompt: I'd appreciate the recorded outcome for O=[N+]([O-])c1ccc(N2N=C(c3ccc4ccccc4c3O)CC2c2ccc(Cl)cc2)c([N+](=O)[O-])c1 (stereo not given) from this test.
Completion: label 0

----------
Measured GI50 by item
# Test system: SN12C
# assay overview: NCI tumour cell line growth inhibition, 48 h
Activity calls are given as the source filed them. No stated cut-off is given here; in the data, active = GI50 up to about 1.1 µM and inactive = higher.

The recorded GI50 for entry CCOC(=O)C(C(=O)c1ccccc1-c1ccccc1C(=O)O)=P(c1ccccc1)(c1ccccc1)c1ccccc1 equals 30.5 µM (inactive)

C[C@]12C[C@H](O)[C@H]3[C@@H](CCC4=CC(=O)CC[C@@]43C)[C@@H]1CC[C@@H]2c1csc(-c2ccccc2)n1 has a reported GI50 of 59.7 µM (inactive)

Record summary for CN(c1c(Cl)cccc1Cl)S(=O)(=O)c1ccccc1[N+](=O)[O-] : reported GI50 = > 100 µM (inactive)

GET /value?item= COc1cc2ccnc3c(=C(SC)SC)c(=O)c(c1OC)c23 &field=GI50 returns 15.2 µM (inactive)
